These measurements were taken from paper PMC6001238.

Test system: E. faecalis VRE 53
Assay: MIC, broth microdilution, vancomycin-resistant E. faecalis VRE 53 (VanA)
Type: cell-based, Enterococcus faecalis
Conditions: VRE 53; ratio of MIC of vancomycin and MIC of analogue
readout: MIC-fold improvement vs. vancomycin
One number for each entry.

Some compounds with known MIC-fold improvement vs. vancomycin results, for comparison:
[
  {
    "compound": "CNC(CC(C)C)C(=O)NC1C(=O)NC(CC(N)=O)C(=O)NC2C(=O)NC3C(=O)NC(C(=O)NC(C(=O)NCC(=O)Nc4cccc(OC)c4)c4cc(O)cc(O)c4-c4cc3ccc4O)C(O)c3ccc(c(Cl)c3)Oc3cc2cc(c3OC2OC(CO)C(O)C(O)C2OC2CC(C)(N)C(O)C(C)O2)Oc2ccc(cc2Cl)C1O (stereo not drawn) [Vanc-12]",
    "tested-target": "E. faecalis VRE 53",
    "readout": "MIC-fold improvement vs. vancomycin",
    "readout-value": 32
  },
  {
    "compound": "CN[C@H](CC(C)C)C(=O)N[C@H]1C(=O)N[C@@H](CC(N)=O)C(=O)N[C@H]2C(=O)N[C@H]3C(=O)N[C@H](C(=O)N[C@H](C(=O)NCC(=O)Nc4ccc(Cl)cc4Cl)c4cc(O)cc(O)c4-c4cc3ccc4O)[C@H](O)c3ccc(c(Cl)c3)Oc3cc2cc(c3O[C@@H]2O[C@H](CO)[C@@H](O)[C@H](O)[C@H]2O[C@H]2C[C@](C)(N)[C@H](O)[C@H](C)O2)Oc2ccc(cc2Cl)[C@H]1O [Vanc-14]",
    "tested-target": "E. faecalis VRE 53",
    "readout": "MIC-fold improvement vs. vancomycin",
    "readout-value": 128
  }
]

Would you kindly share the measured MIC-fold improvement vs. vancomycin for CNC(CC(C)C)C(=O)NC1C(=O)NC(CC(N)=O)C(=O)NC2C(=O)NC3C(=O)NC(C(=O)NC(C(=O)NCCCNC(=O)c4ccc5cc(OC)ccc5c4)c4cc(O)cc(O)c4-c4cc3ccc4O)C(O)c3ccc(c(Cl)c3)Oc3cc2cc(c3OC2OC(CO)C(O)C(O)C2OC2CC(C)(N)C(O)C(C)O2)Oc2ccc(cc2Cl)C1O (stereo not drawn) [Vanc-29] ?
16

----------
I'd appreciate it if you could supply MIC-fold improvement vs. vancomycin values for the items below.
Tested on: Clostridium difficile ATJ ribotype 014/20
Assay: MIC, plate drop assay, C. difficile ATJ ribotype 014/20
Format: cell-based
Settings: C. difficile ATJ ribotype 014/20
Answers are plain numbers.

[
  {
    "compound": "C#Cc1ccc(NC(=O)CNC(=O)C2NC(=O)C3NC(=O)C(NC(=O)C4NC(=O)C(CC(N)=O)NC(=O)C(NC(=O)C(CC(C)C)NC)C(O)c5ccc(c(Cl)c5)Oc5cc4cc(c5OC4OC(CO)C(O)C(O)C4OC4CC(C)(N)C(O)C(C)O4)Oc4ccc(cc4Cl)C3O)c3ccc(O)c(c3)-c3c(O)cc(O)cc32)cc1 (stereo not drawn)",
    "tested-target": "Clostridium difficile ATJ ribotype 014/20",
    "readout": "MIC-fold improvement vs. vancomycin",
    "readout-value": 5.6
  },
  {
    "compound": "CCCCCCCCCC(=O)N[C@@H](Cc1c[nH]c2ccccc12)C(=O)N[C@H](CC(N)=O)C(=O)N[C@@H](CC(=O)O)C(=O)N[C@@H]1C(=O)NCC(=O)N[C@@H](CCCN)C(=O)N[C@@H](CC(=O)O)C(=O)N[C@H](C)C(=O)N[C@@H](CC(=O)O)C(=O)NCC(=O)N[C@H](CO)C(=O)N[C@@H]([C@H](C)CC(=O)O)C(=O)N[C@@H](CC(=O)c2ccccc2N)C(=O)O[C@@H]1C [Daptomycin, reference compound]",
    "tested-target": "Clostridium difficile ATJ ribotype 014/20",
    "readout": "MIC-fold improvement vs. vancomycin",
    "readout-value": 22
  }
]

Moving on to another compound below.
Would you kindly share the measured MIC-fold improvement vs. vancomycin for CNC(CC(C)C)C(=O)NC1C(=O)NC(CC(N)=O)C(=O)NC2C(=O)NC3C(=O)NC(C(=O)NC(C(=O)NCCCNC(=O)c4ccc5cc(OC)ccc5c4)c4cc(O)cc(O)c4-c4cc3ccc4O)C(O)c3ccc(c(Cl)c3)Oc3cc2cc(c3OC2OC(CO)C(O)C(O)C2OC2CC(C)(N)C(O)C(C)O2)Oc2ccc(cc2Cl)C1O (stereo not drawn) ?
5.6
